Biological target: human 5-HT2B receptors (Homo sapiens)
Construct: expressed in transfected cells; host or cells: CHO cell line
Sequence (P41595 whole entry): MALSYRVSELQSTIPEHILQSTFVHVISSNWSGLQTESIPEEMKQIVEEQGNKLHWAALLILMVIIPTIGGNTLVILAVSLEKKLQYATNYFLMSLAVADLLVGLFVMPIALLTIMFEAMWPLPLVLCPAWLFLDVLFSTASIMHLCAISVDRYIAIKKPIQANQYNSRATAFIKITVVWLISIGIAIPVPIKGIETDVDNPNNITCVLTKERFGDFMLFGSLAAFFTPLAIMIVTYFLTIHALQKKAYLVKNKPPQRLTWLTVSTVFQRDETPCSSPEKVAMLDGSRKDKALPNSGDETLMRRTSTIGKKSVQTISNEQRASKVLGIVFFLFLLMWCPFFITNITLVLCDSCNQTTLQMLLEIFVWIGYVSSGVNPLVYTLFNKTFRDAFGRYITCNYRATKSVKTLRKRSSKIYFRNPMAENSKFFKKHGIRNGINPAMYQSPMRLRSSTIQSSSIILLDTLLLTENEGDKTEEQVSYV
Assay: Binding to the 5-HT2B receptor, [3H]-5-HT, CHO cell line (Method (b))
readout_label: Ki

// lookup Ki for c1ccc(C[C@@H]2CNCCO2)cc1 [reference compound]
> 10 µM

----------
Attribute: EC50
Target: 5-HT2A receptor (Homo sapiens)
Assay: Functional activity, FLIPR calcium assay, CHO cells expressing human 5-HT2A
Settings: FLIPR, CHO cells, Fluo-3-AM; read-out: h5-HT2A EC50

Look over these answered cases.
compound	EC50
FC(F)(F)c1cccc(C[C@@H]2CNCCO2)c1	511 nM
COc1c(C)cc(C[C@@H]2CNCCO2)cc1Br	> 3000 nM

Okay, next one:
What value of EC50 on 5-HT2A receptor (Homo sapiens) does c1ccc(C[C@@H]2CNCCO2)cc1 [reference compound] have?
> 3000 nM

----------
Attribute: EC50
Target: UniProt:P28335
Assay: Functional activity, FLIPR calcium assay, CHO cells expressing human 5-HT2C
Assay type: cell-based
Parameters: expressed in transfected cells; host or cells: CHO cells
Details: FLIPR, CHO cells, Fluo-3-AM; read-out: h5-HT2C EC50
Reply with just the number (in nM).

COc1c(C)cc(C[C@@H]2CNCCO2)cc1Br 53

Okay, next one:
// lookup EC50 for `FC(F)(F)c1cccc(C[C@@H]2CNCCO2)c1`
7

----------
Target: human 5-HT2B receptors (Homo sapiens)
Construct: expressed in transfected cells; host or cells: CHO cell line
Test: Binding to the 5-HT2B receptor, [3H]-5-HT, CHO cell line (Method (b))
Conditions: Method (b); [3H]-5-HT; human 5-HT2B; CHO cell line; read-out: Ki (2B)
readout_label: pKi
// pKi here means minus log10 of the molar concentration (mol/L)

// lookup pKi for `FC(F)(F)c1cccc(C[C@@H]2CNCCO2)c1`
7.26

----------
Target: UniProt:P28335
Sequence (P28335 33-458): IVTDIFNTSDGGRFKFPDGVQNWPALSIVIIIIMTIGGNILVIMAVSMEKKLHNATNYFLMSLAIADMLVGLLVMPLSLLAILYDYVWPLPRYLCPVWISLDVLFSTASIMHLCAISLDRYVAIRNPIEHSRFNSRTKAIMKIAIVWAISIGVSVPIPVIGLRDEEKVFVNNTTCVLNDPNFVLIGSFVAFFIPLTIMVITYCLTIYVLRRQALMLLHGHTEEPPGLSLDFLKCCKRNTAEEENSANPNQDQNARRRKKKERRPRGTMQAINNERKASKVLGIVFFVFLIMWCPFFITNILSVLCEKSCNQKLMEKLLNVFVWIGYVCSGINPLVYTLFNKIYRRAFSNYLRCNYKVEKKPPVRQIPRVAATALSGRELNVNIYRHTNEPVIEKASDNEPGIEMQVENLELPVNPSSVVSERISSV
Experiment: Binding to the 5-HT2C receptor, [3H]-5-HT, CHO cell line (Method (a))
Design: expressed in transfected cells; host or cells: CHO cell line
Method: The binding of compounds of formula (I) to serotonin receptors was determined in vitro by standard methods. The preparations were investigated in accordance with the assays given hereinafter. Method (a): For the binding to the 5-HT2C receptor the 5-HT2C receptors were radiolabeled with [^3H]-5-HT. The affinity of the compounds for 5-HT2C receptors in a CHO cell line was determined according to the procedure of D. Hoyer, G. Engel and H. O. Kalkman, European J. Pharmacol., 1985, 118, 13-23.
readout_label: pKi
// pKi here means minus log10 of the molar concentration (mol/L)

What value of pKi on UniProt:P28335 does c1ccc(C[C@@H]2CNCCO2)cc1 [reference compound] have?
6.77

----------
Molecular target: 5-HT2A receptor (Homo sapiens, UniProt P28223)
Sequence (P28223 whole entry): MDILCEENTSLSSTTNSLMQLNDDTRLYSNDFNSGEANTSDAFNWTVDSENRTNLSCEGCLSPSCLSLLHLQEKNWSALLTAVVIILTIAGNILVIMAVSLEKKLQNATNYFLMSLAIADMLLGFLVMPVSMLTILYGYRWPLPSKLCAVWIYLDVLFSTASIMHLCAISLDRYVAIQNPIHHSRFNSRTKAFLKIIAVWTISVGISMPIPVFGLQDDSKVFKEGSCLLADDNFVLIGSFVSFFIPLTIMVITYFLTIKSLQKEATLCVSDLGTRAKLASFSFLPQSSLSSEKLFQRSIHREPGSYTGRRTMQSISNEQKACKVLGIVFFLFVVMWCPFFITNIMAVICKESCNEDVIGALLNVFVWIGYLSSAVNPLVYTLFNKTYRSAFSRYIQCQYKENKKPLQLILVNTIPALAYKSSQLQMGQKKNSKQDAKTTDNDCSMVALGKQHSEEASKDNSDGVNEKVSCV
Assay: Binding to the 5-HT2A receptor, [125I]-DOI, CHO cell line (Method (c))
Set-up: expressed in transfected cells; host or cells: CHO cell line
pKi: −log10 of the molar value.
readout_label: pKi

What value of pKi on 5-HT2A receptor (Homo sapiens, UniProt P28223) does c1ccc(C[C@@H]2CNCCO2)cc1 [reference compound] have?
< 5.00
